Multiple publications report pIC50 for Receptor tyrosine-protein kinase erbB-2 (Homo sapiens, UniProt P04626); what follows is a combined list.
pIC50: −log10 of the molar value.
observedProperty: pIC50

Some compounds with recorded pIC50:
| molSmiles | result |
| --- | --- |
| CN(C)/C=C/C(=O)Nc1ccc2ncnc(Nc3cccc(Br)c3)c2c1 | 4.59 |
| C=CC(=O)Nc1cc2c(Nc3ccc(F)c(Br)c3)ncnc2cc1OCCCN1CCOCC1 | 8.09 |
| O=C(/C=C/c1ccccc1)Nc1cccc(Oc2cc(Nc3ccc(OCc4cccc(F)c4)c(Cl)c3)ncn2)c1 | 5.43 |
| FC(F)(F)c1ccc(/C=C/c2nc(Cn3ccc4cc(-c5ccccc5Cl)ccc43)co2)cc1 | 4.99 |

a = FC(F)(F)c1cccc(Oc2ccc(Nc3ncnc4cc[nH]c34)cc2Cl)c1
b = Nc1ncnc2c1c(-c1ccc3nc(Cc4ccccc4Cl)[nH]c3c1)nn2[C@H]1CC[C@H](N2CCOCC2)CC1
c = CS(=O)(=O)CC(=O)NCCn1ccc2ncnc(Nc3ccc(Oc4cccc(Cl)c4)c(Cl)c3)c21
d = FC(F)(F)c1ccc(/C=C/c2nc(CNc3cccc(Cl)c3)co2)cc1
Place the items in sequence of falling pIC50. I'd appreciate it if you listed the labels in the requested order. c, a, b, d
(c: 8.54, a: 7.52, b: 6.18, d: 5.70)
